Vmax /Km for assorted compounds
system: Nucleoside Phosphorylase; assay: Pyrimidine nucleoside phosphorylase kinetics, human liver; assay type: biochemical; settings: substrate of nucleoside phosphorylase
Readout name: Vmax /Km

[
  {
    "Item smiles": "Cc1cn([C@H]2C[C@H](O)[C@@H](CO)O2)c(=O)[nH]c1=O",
    "Readout name": "Vmax /Km",
    "Result": "76.15 min^-1 × 10^3"
  },
  {
    "Item smiles": "O=c1ccn([C@@H]2O[C@H](CO)[C@@H](O)[C@H]2O)c(=O)[nH]1",
    "Readout name": "Vmax /Km",
    "Result": "172.00 min^-1 × 10^3"
  },
  {
    "Item smiles": "O=c1[nH]c(=O)n([C@@H]2O[C@H](CO)[C@@H](O)[C@H]2O)cc1F",
    "Readout name": "Vmax /Km",
    "Result": "8.62 min^-1 × 10^3"
  },
  {
    "Item smiles": "O=c1[nH]c(=O)n([C@H]2C[C@H](O)[C@@H](CO)O2)cc1F",
    "Readout name": "Vmax /Km",
    "Result": "111.90 min^-1 × 10^3"
  }
]
